target: full-length recombinant human NEK7 (Homo sapiens); construct: full-length recombinant human NEK7; GST (N); assay: NEK7 enzymatic assay; details: recombinant human NEK7, casein substrate, radiolabelled ATP
readout.type: IC50

The following compounds have reported results that may help.
CN1CCN(Cc2ccc(NC(=O)Nc3ccc(-c4cn(C5CC5)c5ncnc(N)c45)cc3F)cc2C(F)(F)F)CC1 = < 100 nM
CN1CCN(Cc2ccc(NC(=O)Nc3ccc(-c4cn(C5CCC5)c5ncnc(N)c45)cc3F)cc2C(F)(F)F)CC1 = 100 to 500 nM
CN1CCN(Cc2ccc(NC(=O)Nc3ccc(-c4cn(C5CC5)c5ncnc(N)c45)cc3F)cc2OC(F)(F)F)CC1 = 100 to 500 nM

Kindly consider the entry below.
Query string: Can you look up the measured IC50 of COCCn1cc(-c2ccc(NC(=O)Nc3ccc(CN4CCN(C)CC4)c(C(F)(F)F)c3)c(F)c2)c2c(N)ncnc21 for me?
Result string: < 100 nM

###

molecular target: full-length recombinant human NEK7 (Homo sapiens, UniProt Q8TDX7); construct: full-length recombinant human NEK7; GST (N); assay: NEK7 enzymatic assay; settings: recombinant human NEK7, casein substrate, radiolabelled ATP
Sequence (Q8TDX7 whole entry): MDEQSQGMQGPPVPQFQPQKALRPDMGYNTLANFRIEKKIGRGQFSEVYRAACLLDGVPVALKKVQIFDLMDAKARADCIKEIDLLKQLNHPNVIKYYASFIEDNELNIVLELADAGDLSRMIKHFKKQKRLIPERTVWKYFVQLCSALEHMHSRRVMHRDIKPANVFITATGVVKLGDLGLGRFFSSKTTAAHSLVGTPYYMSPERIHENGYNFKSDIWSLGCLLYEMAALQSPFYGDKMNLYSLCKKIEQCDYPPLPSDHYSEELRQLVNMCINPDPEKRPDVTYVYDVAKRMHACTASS
pIC50: −log10 of the molar value.
readout.type: pIC50

Nc1ncnc2c1c(-c1ccc(NC(=O)Nc3ccc(OC4CCN(C5COC5)CC4)c(C(F)(F)F)c3)c(F)c1)cn2C1CC1 = 6.30 to 7.00
CN1CCN(Cc2cc(NC(=O)Nc3ccc(-c4cn(C5CC5)c5ncnc(N)c45)cc3F)cc(C(F)(F)F)c2)CC1 = > 7.00

Query string: Param item = CCN1CCN(Cc2ccc(NC(=O)Nc3ccc(-c4cn(C5CC5)c5ncnc(N)c45)cc3F)cc2C(F)(F)F)CC1 ; retrieve measured pIC50.
Result string: > 7.00

Query string: Bench note: what pIC50 did CN1CCN(Cc2ccc(NC(=O)Nc3ccc(-c4cn(C5CC5)c5ncnc(N)c45)cc3F)cc2Cl)CC1 show?
Result string: 6.30 to 7.00

Query string: pIC50 lookup needed for CN1CCC(Cc2ccc(NC(=O)Nc3ccc(-c4cn(C5CC5)c5ncnc(N)c45)cc3F)cc2C(F)(F)F)CC1 , thanks.
Result string: < 5.70

Query string: Can you share its pIC50? I mean this compound: CN1CCN(Cc2cc(NC(=O)Nc3ccc(-c4nn(C5CC5)c5ncnc(N)c45)cc3F)cc(C(F)(F)F)c2)CC1
Result string: > 7.00

Query string: Would you kindly share the measured pIC50 for Nc1ncnc2c1c(-c1ccc(NC(=O)Nc3ccc(CN4CCOCC4)cc3F)c(F)c1)cn2C1CC1 ?
Result string: < 5.70

###

target: full-length recombinant human NEK7 (Homo sapiens, UniProt Q8TDX7); construct: full-length recombinant human NEK7; GST (N); test: NEK7 enzymatic assay; conditions: recombinant human NEK7, casein substrate, radiolabelled ATP
readout.type: IC50

Illustrative cases are given below, each with its answer.
CC(=O)N1CCN(Cc2ccc(NC(=O)Nc3ccc(-c4cn(C5CC5)c5ncnc(N)c45)cc3F)cc2C(F)(F)F)CC1 = 100 to 500 nM
Nc1ncnc2c1c(-c1ccc(NC(=O)Nc3ccc(OC4CCN(C5COC5)CC4F)c(C(F)(F)F)c3)c(F)c1)cn2C1CC1 (single isomer, unassigned) [Example I-91] = 100 to 500 nM

Query string: I would be grateful if you could share the reported IC50 for CN1CCN(Cc2ccc(NC(=O)Nc3ccc(-c4nn(CC(C)(C)O)c5ncnc(N)c45)cc3F)cc2C(F)(F)F)CC1 .
Result string: < 100 nM

Query string: Sample Nc1ncnc2c1c(-c1ccc(NC(=O)Nc3ccc(CN4CCN(CCS(=O)(=O)O)CC4)c(C(F)(F)F)c3)c(F)c1)cn2C1CC1 — what was its IC50?
Result string: < 100 nM

Query string: I would be grateful if you could share the reported IC50 for CN1CCC(Oc2ccc(NC(=O)Nc3ccc(-c4cn(C5CC5)c5ncnc(N)c45)cc3F)cc2C(F)(F)F)CC1 .
Result string: < 100 nM

Query string: GET /values?readout=IC50&item= Nc1ncnc2c1c(-c1ccc(NC(=O)Nc3ccc(CN4CCN(C5COC5)CC4)c(C(F)(F)F)c3)c(F)c1)cn2C1CC1
Result string: 100 to 500 nM

###

target: full-length recombinant human NEK7 (Homo sapiens); construct: full-length recombinant human NEK7; GST (N); assay: NEK7 enzymatic assay; conditions: recombinant human NEK7, casein substrate, radiolabelled ATP
pIC50: −log10 of the molar value.
pIC50 listing for selected molecules.

// below: answered molecules
CN1CCN(Cc2ccc(NC(=O)Nc3ccc(-c4cn(C5CC5)c5ncnc(N)c45)cc3F)c(C(F)(F)F)c2)CC1 = < 5.70
CN(C)C1CCN(Cc2ccc(NC(=O)Nc3ccc(-c4cn(C5CC5)c5ncnc(N)c45)cc3F)cc2C(F)(F)F)CC1 = > 7.00
CN1CCN(Cc2ccc(NC(=O)Nc3ccc(-c4cn(C5CCN(C)C5)c5ncnc(N)c45)cc3F)cc2C(F)(F)F)CC1 (stereo not drawn) = > 7.00
CN1CCN(Cc2ncc(NC(=O)Nc3ccc(-c4cn(C5CC5)c5ncnc(N)c45)cc3F)cc2C(F)(F)F)CC1 = 6.30 to 7.00

Query string: Param readout = pIC50; param system = full-length recombinant human NEK7 (Homo sapiens); param query = Cc1cc(NC(=O)Nc2ccc(-c3nn(C(C)C)c4ncnc(N)c34)cc2)ccc1N1CCOCC1 ; response: value
Result string: 6.30 to 7.00

Query string: Find the measured pIC50: item CN1CCN(Cc2ccc(NC(=O)Nc3ccc(-c4cn(C5CC5)c5ncnc(N)c45)cc3F)cc2C(F)(F)F)C2(CC2)C1 , target or system full-length recombinant human NEK7 (Homo sapiens).
Result string: 6.30 to 7.00

###

target: full-length recombinant human NEK7 (Homo sapiens, UniProt Q8TDX7); construct: full-length recombinant human NEK7; GST (N); assay: NEK7 enzymatic assay; details: recombinant human NEK7, casein substrate, radiolabelled ATP
readout.type: IC50

CN1CCC(Oc2ccc(NC(=O)Nc3ccc(-c4cn(C5CC5)c5ncnc(N)c45)cc3F)cc2C(F)(F)F)C(F)C1 (single isomer, unassigned) [Example I-90] = < 100 nM
CN1CCN(Cc2ccc(NC(=O)Nc3ccc(-c4nn(CCCCCO)c5ncnc(N)c45)cc3F)cc2C(F)(F)F)CC1 [Example I-103] = < 100 nM
Nc1ncnc2c1c(-c1ccc(NC(=O)Nc3ccc(CN4CCN(CCO)CC4)c(C(F)F)c3)c(F)c1)cn2C1CC1 [Example I-72] = < 100 nM
CN1CCN(Cc2ccc(NC(=O)Nc3ccc(-c4nn(C5CC5)c5ncnc(N)c45)cc3F)cc2C(F)(F)F)CC1 [Example I-28] = < 100 nM

Query string: What value of IC50 has been reported for the following compound? CN1CCN(Cc2ccc(NC(=O)Nc3ccc(-c4nn(CCO)c5ncnc(N)c45)cc3F)cc2C(F)(F)F)CC1 [Example I-76]
Result string: < 100 nM

Query string: For Nc1ncnc2c1c(-c1ccc(NC(=O)Nc3ccc(OC4CCN(C5COC5)CC4F)c(C(F)(F)F)c3)c(F)c1)cn2C1CC1 (single isomer, unassigned) [Example I-92] , what is its reported IC50?
Result string: 100 to 500 nM

Query string: For CN1CCN(Cc2ccc(NC(=O)Nc3ccc(-c4cn(C5CC5)c5ncnc(N)c45)cc3Cl)cc2C(F)(F)F)CC1 [Example I-35] , what is its reported IC50?
Result string: 100 to 500 nM

Query string: Dear colleague, I am looking for the recorded IC50 of the following compound: CCN1CCN(Cc2ccc(NC(=O)Nc3ccc(-c4cn(C5CC5)c5ncnc(N)c45)cc3Cl)cc2C(F)(F)F)CC1 [Example I-55]
Result string: 100 to 500 nM

Query string: Dear colleague, I am looking for the recorded IC50 of the following compound: CC(c1ccc(NC(=O)Nc2ccc(-c3cn(C4CC4)c4ncnc(N)c34)cc2F)cc1C(F)(F)F)N1CCN(C)CC1 (stereo not shown) [Example I-6]
Result string: > 2000 nM

Query string: Item under review: CN1CC2(C1)CN(Cc1ccc(NC(=O)Nc3ccc(-c4cn(C5CC5)c5ncnc(N)c45)cc3F)cc1C(F)(F)F)C2 [Example I-7] . Reported IC50?
Result string: > 2000 nM

Query string: Requested read-out: IC50. Entry: CN1CCN(Cc2ccc(NC(=O)Nc3ccc(-c4cn(CC(C)(C)O)c5ncnc(N)c45)cc3F)cc2C(F)(F)F)CC1 [Example I-15]
Result string: < 100 nM

Query string: Entry CCN1CCC(Oc2ccc(NC(=O)Nc3ccc(-c4cn(C5CC5)c5ncnc(N)c45)cc3F)cc2C(F)(F)F)CC1 [Example I-88] : reported IC50 = ?
Result string: < 100 nM

###

IC50 overview
target: full-length recombinant human NEK7 (Homo sapiens, UniProt Q8TDX7); construct: full-length recombinant human NEK7; GST (N); experiment: NEK7 enzymatic assay; details: recombinant human NEK7, casein substrate, radiolabelled ATP

# annotated cases, reported IC50 shown
Nc1ncnc2c1c(-c1ccc(NC(=O)Nc3ccc(CN4CCN(S(=O)(=O)C5CC5)CC4)c(C(F)(F)F)c3)c(F)c1)cn2C1CC1 [Example I-97] = 500 to 2000 nM
CN1CCN(Cc2ccc(NC(=O)Nc3ccc(-c4nn(C5CC5)c5ncnc(N)c45)cn3)cc2C(F)(F)F)CC1 [Example I-30] = 100 to 500 nM
CN1CC2CC1CN2Cc1ccc(NC(=O)Nc2ccc(-c3cn(C4CC4)c4ncnc(N)c34)cc2F)cc1C(F)(F)F (stereo not shown) [Example I-64] = < 100 nM

Query string: // returns reported IC50 for input CCN1CCN(Cc2ccc(NC(=O)Nc3ccc(-c4nn(C5CC5)c5ncnc(N)c45)cc3F)cc2C(F)(F)F)CC1 [Example I-50]
Result string: < 100 nM

Query string: Item under review: Nc1ncnc2c1c(-c1ccc(NC(=O)Nc3ccc(CN4CCNCC45CC5)c(C(F)(F)F)c3)c(F)c1)cn2C1CC1 [Example I-66] . Reported IC50?
Result string: < 100 nM

Query string: Item CN1CC2CCC(C1)N2Cc1ccc(NC(=O)Nc2ccc(-c3cn(C4CC4)c4ncnc(N)c34)cc2F)cc1C(F)(F)F [Example I-4] has what recorded IC50?
Result string: 100 to 500 nM

Query string: Please give the measured IC50 for this compound: Nc1ncnc2c1c(-c1ccc(NC(=O)Nc3ccc(CN4CCC(N)CC4)c(C(F)(F)F)c3)c(F)c1)cn2C1CC1 [Example I-75]
Result string: 100 to 500 nM
